Target: hTLR8 (Homo sapiens, UniProt Q9NR97)
Sequence (Q9NR97 27-1041): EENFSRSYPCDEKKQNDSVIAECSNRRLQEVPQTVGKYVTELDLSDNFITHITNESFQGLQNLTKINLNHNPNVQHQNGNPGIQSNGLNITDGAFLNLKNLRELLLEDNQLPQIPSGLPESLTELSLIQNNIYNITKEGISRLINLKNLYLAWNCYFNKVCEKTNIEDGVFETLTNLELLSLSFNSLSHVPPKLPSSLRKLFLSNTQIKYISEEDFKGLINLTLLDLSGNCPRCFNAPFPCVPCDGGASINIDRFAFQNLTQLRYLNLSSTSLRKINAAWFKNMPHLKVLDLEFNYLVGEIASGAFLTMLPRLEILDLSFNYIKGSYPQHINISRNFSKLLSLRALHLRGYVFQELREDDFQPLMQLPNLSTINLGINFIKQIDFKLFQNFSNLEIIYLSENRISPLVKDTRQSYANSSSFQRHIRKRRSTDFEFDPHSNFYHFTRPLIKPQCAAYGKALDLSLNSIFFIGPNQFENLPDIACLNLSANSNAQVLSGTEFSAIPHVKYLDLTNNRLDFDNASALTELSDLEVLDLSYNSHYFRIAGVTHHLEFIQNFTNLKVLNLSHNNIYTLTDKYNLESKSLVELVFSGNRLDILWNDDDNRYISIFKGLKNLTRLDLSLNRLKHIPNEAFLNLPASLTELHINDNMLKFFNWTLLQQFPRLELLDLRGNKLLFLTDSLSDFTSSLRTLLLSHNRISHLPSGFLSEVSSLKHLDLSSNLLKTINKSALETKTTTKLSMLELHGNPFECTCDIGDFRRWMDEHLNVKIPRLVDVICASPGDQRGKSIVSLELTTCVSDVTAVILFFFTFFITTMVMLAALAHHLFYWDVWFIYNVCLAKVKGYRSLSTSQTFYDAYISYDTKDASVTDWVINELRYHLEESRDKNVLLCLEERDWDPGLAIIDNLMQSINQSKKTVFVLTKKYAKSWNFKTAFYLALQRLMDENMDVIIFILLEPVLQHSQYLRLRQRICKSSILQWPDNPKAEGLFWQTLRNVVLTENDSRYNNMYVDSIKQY
Test: Human TLR8 Reporter Assay
Details: HEK-Blue hTLR8 cells, 16 hours, normalized to tl8-506 (1 μM) and DMSO
Experimental: HEK-Blue™ hTLR8 cells (Invivogen, San Diego, Calif.) were maintained at 37° C./5% CO2/90% relative humidity in Dulbecco's Modified Eagle's Medium with 10% fetal bovine serum, 100 units/mL penicillin, 100 μg/mL streptomycin, 100 μg/mL normocin, 10 μg/mL blasticidin, and 100 μg/mL zeocin. HEK-Blue™ hTLR8 cells were maintained at 10-90% confluence and used before passage 20. […] Calculated % effects were fit using a 4-parameter algorithm, and EC50 was reported.
pEC50: −log10 of the molar value.
Reported pEC50 by item:
experimental-readout: pEC50

INSERT INTO results (compound, experimental_readout, censoring_qualifier, measurement) VALUES
  ('COc1cccc(OC)c1Cn1cc2nc(N)nc(NCC(C)C)c2n1', 'pEC50', '<', 4.52),
  ('CCCCNc1nc(N)nc2cn(Cc3ccccc3OC)nc12', 'pEC50', '=', 5.31),
  ('CCC[C@H](C)Nc1nc(N)nc2cn(Cc3c(OC)cc(CNC)cc3OC)nc12', 'pEC50', '=', 5.66),
  ('CCCCNc1nc(N)nc2cn(Cc3c(OC)cc(C(C)NC)cc3OC)nc12 (stereo not shown) [Compound 209]', 'pEC50', '=', 6.79),
  ('CCCCNc1nc(N)nc2cn(Cc3ccc(N4CC5(CNC5)C4)cc3OC)nc12', 'pEC50', '=', 5.38),
  ('CCCCNc1nc(N)nc2cn(Cc3c(OC)cccc3OCCCCO)nc12', 'pEC50', '=', 6.04),
  ('CCC[C@@H](CO)Nc1nc(N)nc2cn(Cc3c(OC)cc(C(CN)N(C)CCC)cc3OC)nc12 (stereo partly shown) [Compound 221]', 'pEC50', '=', 5.46),
  ('CCC[C@H](CO)Nc1nc(N)nc2cn(Cc3c(OC)cccc3OC)nc12', 'pEC50', '=', 5.52),
  ('CCCCNc1nc(N)nc2cn(Cc3ccc4c(c3)CCC4N)nc12 (stereo not shown) [Compound 235]', 'pEC50', '=', 5.61),
  ('CCCCNc1nc(N)nc2cn(Cc3cncn3C3CC3)nc12', 'pEC50', '=', 5.47),
  ('CCCCNc1nc(N)nc2cn(Cc3ccccn3)nc12', 'pEC50', '=', 5.63),
  ('CCCCNc1nc(N)nc2cn(Cc3ccc(C(N)CCN)cc3OC)nc12 (stereo not shown) [Compound 228]', 'pEC50', '=', 5.15),
  ('CCCC(Nc1nc(N)nc2cn(Cc3c(OC)cccc3OC)nc12)C(F)F (stereo not shown) [Compound 136]', 'pEC50', '=', 5.87),
  ('CCCCNc1nc(N)nc2cn(Cc3ccc(C(C)N(C)CCC)cc3OC)nc12 (stereo not shown) [Compound 241]', 'pEC50', '=', 6.14),
  ('CCCCNc1nc(N)nc2cn(Cc3ncc(CNC)cc3OC)nc12', 'pEC50', '=', 6.09),
  ('CCC[C@@H](CO)Nc1nc(N)nc2cn(Cc3ncc(CNC)cc3OC)nc12', 'pEC50', '=', 6.11),
  ('CCCCNc1nc(N)nc2cn(CCCCCCCCN)nc12', 'pEC50', '=', 4.58),
  ('CCCCNc1nc(N)nc2cn(Cc3cncnc3OC)nc12', 'pEC50', '=', 5.77),
  ('C=CCN(C)Cc1cnc(Cn2cc3nc(N)nc(N[C@H](CO)CCC)c3n2)c(OC)c1', 'pEC50', '=', 6.99);
